Cited source for all entries: patent US12479840B2

DC50 listing for selected compounds.
target: HMG-CoA reductase (Homo sapiens, UniProt P04035); construct: endogenous in cells; host or cells: HepG2 (Korea Cell Line Bank); test: HMG-CoA reductase (HMGCR) degradation in HepG2 cells by western blotting; assay type: cell-based; conditions: treated for 18 hours, ratio of HMG-CoA reductase to GAPDH, read-out: DC50
Sequence (P04035 whole entry): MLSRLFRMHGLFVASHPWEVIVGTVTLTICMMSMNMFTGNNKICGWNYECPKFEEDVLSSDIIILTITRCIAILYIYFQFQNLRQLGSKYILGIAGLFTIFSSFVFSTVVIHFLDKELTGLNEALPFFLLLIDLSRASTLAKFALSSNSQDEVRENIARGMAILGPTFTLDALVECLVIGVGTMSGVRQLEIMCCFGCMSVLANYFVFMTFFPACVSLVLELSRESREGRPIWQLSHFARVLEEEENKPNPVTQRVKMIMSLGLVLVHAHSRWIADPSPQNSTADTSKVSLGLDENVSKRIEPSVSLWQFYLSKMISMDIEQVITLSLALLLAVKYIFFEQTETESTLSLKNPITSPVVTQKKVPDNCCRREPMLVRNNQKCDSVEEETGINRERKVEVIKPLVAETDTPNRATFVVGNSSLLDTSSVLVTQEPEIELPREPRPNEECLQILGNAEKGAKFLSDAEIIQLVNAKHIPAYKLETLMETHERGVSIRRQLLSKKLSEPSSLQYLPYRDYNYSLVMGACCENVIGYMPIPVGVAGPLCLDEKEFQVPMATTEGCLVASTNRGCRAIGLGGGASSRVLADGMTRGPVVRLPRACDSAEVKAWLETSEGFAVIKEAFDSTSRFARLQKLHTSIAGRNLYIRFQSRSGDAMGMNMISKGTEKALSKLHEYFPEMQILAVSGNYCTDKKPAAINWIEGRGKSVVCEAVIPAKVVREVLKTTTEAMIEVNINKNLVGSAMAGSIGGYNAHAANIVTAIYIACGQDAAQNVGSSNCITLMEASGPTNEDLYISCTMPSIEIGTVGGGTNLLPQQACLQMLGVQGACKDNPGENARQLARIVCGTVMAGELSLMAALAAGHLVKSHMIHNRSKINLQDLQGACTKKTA
Measured property: DC50

{"Compound": "C[C@H]1C=C2C=C[C@H](C)[C@H](CC[C@@H]3C[C@@H](O[Si](C)(C)C(C)(C)C)CC(=O)O3)[C@H]2[C@@H](OC(=O)NCCOCCNc2cccc3c2C(=O)N(C2CCC(=O)NC2=O)C3=O)C1 (stereo partly shown)", "Measured property": "DC50", "Result": "< 50 nM"}
{"Compound": "C[C@H]1C=C2C=C[C@H](C)[C@H](CC[C@@H]3C[C@@H](O)CC(=O)O3)[C@H]2[C@@H](OC(=O)NCCOCCCOCCNc2cccc3c2C(=O)N(C2CCC(=O)NC2=O)C3=O)C1 (stereo partly shown)", "Measured property": "DC50", "Result": "< 50 nM"}
{"Compound": "C[C@H]1C=C2C=C[C@H](C)[C@H](CC[C@@H]3C[C@@H](O[Si](C)(C)C(C)(C)C)CC(=O)O3)[C@H]2[C@@H](OC(=O)NCc2ccc(OCCNc3cccc4c3C(=O)N(C3CCC(=O)NC3=O)C4=O)cc2)C1 (stereo partly shown)", "Measured property": "DC50", "Result": "< 50 nM"}
{"Compound": "C[C@H]1C=C2C=C[C@H](C)[C@H](CC[C@@H]3C[C@@H](O[Si](C)(C)C(C)(C)C)CC(=O)O3)[C@H]2[C@@H](OC(=O)NCCCOC2CCN(C(=O)COc3cccc4c3C(=O)N(C3CCC(=O)NC3=O)C4=O)CC2)C1 (stereo partly shown)", "Measured property": "DC50", "Result": "50 to 500 nM"}
